Numbers sourced from patent US20230322924A1.

- TESTED TARGET: T1, Cyno CD33 ECD-HSA (cynomolgus monkey)
- T1 construct: Cyno CD33 extracellular domain fused to monomeric human serum albumin and a six-histidine tag; also called C33W1
- PROTOCOL NOTES: SPRi off-rate screen (IBIS MX96), mAb captured by anti-human Fc; column head prints Cyno CD33 binding KD
READOUT: koff (s⁻¹)
# unit: s⁻¹ | format: bare number

BINDER	DISPLAY UNIT	MEASURED VALUE
C33B124 (antibody, IgG1, V domains shown, huIgG1 F405L; also called C33F129; C33H73/C33L32) VH: EVQLLESGGGLVQPGGSLRLSCAASRFTFSSYAMTWVRQAPGKGLEWVSTINISGGSTYYADSVKGRFTISRDNSKNTLYLQMNSLRAEDTAVYYCTKGGYSSGPFDYWGQGTLVSVSS VL: SYELTQPPSVSVSPGQTASITCSGDKLGDKYVRWYQQKTGQSPVLVMYQDSKRPSGIRERFYGSNSGNTATPTISGTQAVDEAEYYCQAWDSSTGVVFGGGTKLTVL	s⁻¹	0.000477
C33B88 (antibody, IgG1, V domains shown, huIgG1 F405L; also called C33F93; C33H88/C33L61) VH: QVQLVQSGSELKKPGASVKVSCKASGYTLTRSAMNWVRQAPGQGLEWMGWINTNTGNPTYAQGFTGRFVFSLDTSVNTAYLLISSLKTEDTAVYYCASDILPGYHEDYWGQGTLVTVSS VL: QSALTQPASVSGSPGQSITISCTGINSDVGSYDLVSWYQQHPGKAPKLLIYDGSERPSGVFGRFSGSKSDNTTSLTISGLQAEDEAAYYCCSYEVTTTYVVFGGGTKLTVL	s⁻¹	0.000389

Then there is this binder:
Lookup: Provide one value: measured koff of C33B125 (antibody, IgG1, V domains shown, huIgG1 F405L; also called C33F130; C33H84/C33L66) VH: QVQLVESGGGVVQPGRSLRLSCAASGFTFSSYGMHWVRQAPGKGLEWVAVISYDGSNKYYADSVKGRFTISRDNSKNTLYLQMNSLRAEDTAVYYCAKDFRSFDWLPPDSTSYYGMDVWGQGTTVTVSS VL: SYELTQPPSVSVSPGQTASITCSGDKLGDKYVCWYQQKPGQSPVVVIHQDRKRPSGIPERFSGSNFGNTATLTISGTQAMDEADYYCQAWDSSTVVFGGGTKLTVL
Found: 0.000351
